- ASSAYED_SYSTEM: Estrogen receptor (Homo sapiens, UniProt Q92731+P03372)
- ASSAY: Inhibition of 10e-9 M E2 stimulated transcriptional activation in ER+MCF-7/2a breast cancer cells
- Format: functional, cell-based
- CONDITION_PARAMETERS: cancer cell lines
Parameter log10 IC50: see the listing below.
OBSERVABLE: log10 IC50 (log10 of the value in µM)

- MOL_SMILES: "CC/C(=C(/CCCCCCN(C)CCCSCCCC(F)(F)C(F)(F)F)c1ccc(O)cc1)c1ccc(O)cc1"
  OBSERVABLE: "log10 IC50"
  RECORDED_MEASUREMENT: -2.00
- MOL_SMILES: "CCCCCSCCCN(C)CCCCCC/C(=C(/CC)c1ccc(O)cc1)c1ccc(O)cc1"
  OBSERVABLE: "log10 IC50"
  RECORDED_MEASUREMENT: -2.00
- MOL_SMILES: "CCCCCSCCCN(C)C(=O)CCCCC/C(=C(/CC)c1ccc(O)cc1)c1ccc(O)cc1"
  OBSERVABLE: "log10 IC50"
  RECORDED_MEASUREMENT: -0.22
- MOL_SMILES: "CCCCCS(=O)(=O)CCCCCCCCCC/C(=C(/CC)c1ccc(O)cc1)c1cccc(O)c1"
  OBSERVABLE: "log10 IC50"
  RECORDED_MEASUREMENT: -0.43
- MOL_SMILES: "CCCCCSCCCCCCCCCC/C(=C(/CC)c1cccc(O)c1)c1ccc(O)cc1"
  OBSERVABLE: "log10 IC50"
  RECORDED_MEASUREMENT: -0.70
- MOL_SMILES: "CCCCCS(=O)(=O)CCCCCCCCCCn1c(-c2ccc(O)cc2)c(C)c2cc(O)ccc21"
  OBSERVABLE: "log10 IC50"
  RECORDED_MEASUREMENT: -1.70
- MOL_SMILES: "CC/C(=C(/CCCCCC(=O)N(C)CCCSCCCC(F)(F)C(F)(F)F)c1ccc(O)cc1)c1ccc(O)cc1"
  OBSERVABLE: "log10 IC50"
  RECORDED_MEASUREMENT: -0.51
